# Tested on: Saccharomyces cerevisiae
# Protocol Summary: checkerboard drug interaction (FICI, MICc);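 also: simplified diagonal checkerboard screen pairing antifungals with FPPS inhibitors, FICI calculated under the Loewe additivity model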
# Type: cell-based
# Conditions Used: S. cerevisiae; KET:INH combination; fold decrease of inhibitor MIC
Property Measured: INH FD (MIC-MICc fold decrease)
// response body must contain only the number

Lookup result for CCCCCCCCCCN1CCC[C@H]1C(=O)N[C@@H](CC(=O)OC)C(=O)OC ; measured INH FD (MIC-MICc fold decrease): 8

INH FD (MIC-MICc fold decrease) reading for CCCCCCCCCN1CCC[C@H]1C(=O)N[C@@H](CC(=O)OC)C(=O)OC : 16

Input CCCCCCCCCCCN1CCC[C@H]1C(=O)N[C@@H](CC(=O)O)C(=O)O . Output INH FD (MIC-MICc fold decrease): 32

The recorded INH FD (MIC-MICc fold decrease) for entry O=P(O)(O)C(O)(Cn1ccnc1)P(=O)(O)O [ZOL, zoledronate] equals 8

The compound identified as CCCCCCCCCN1CCC[C@H]1C(=O)N[C@@H](CC(=O)O)C(=O)O registered its INH FD (MIC-MICc fold decrease) at 16

The reported measurements were obtained from paper PMC12892976.
